Assay: In vitro SPF in a chemical solvent (Diffey and Robson)
Assay type: physicochemical
Conditions: ethyl acetate solution, 10 μg/ml, transmittance 290-400 nm
Recorded SPF, one value per entry.
Just the number, please.

COc1ccc(-c2nnc(-c3ccc(O)cc3)nc2-c2ccc(OC)cc2)cc1 [JR65] = 68.21
CC(C)(C)CC(C)(C)c1cc(Cc2cc(C(C)(C)CC(C)(C)C)cc(-n3nc4ccccc4n3)c2O)c(O)c(-n2nc3ccccc3n2)c1 [Tinosorb M ®, reference compound] = 54.07
COc1ccc(-c2nnc(N)nc2-c2ccc(OC)cc2)cc1 [JR77] = 47.16
CCCCC(CC)COC(=O)C=Cc1ccc(OC)cc1 (centres unmarked) [Parsol MCX ®, reference compound] = 20.78
CCCCCCCCCCCCOc1ccc(-c2nnc(-c3ccc(OC)cc3)c(-c3ccc(OC)cc3)n2)cc1 [JR173] = 69.02
CCCCC(CC)COc1ccc(-c2nc(-c3ccc(OC)cc3)nc(-c3ccc(OCC(CC)CCCC)cc3O)n2)c(O)c1 (centres unmarked) [Tinosorb S ®, reference compound] = 76.19
COc1ccc(C(=O)CC(=O)c2ccc(C(C)(C)C)cc2)cc1 [Parsol 1789 ®, reference compound] = 51.1

Short answer for COc1ccc(-c2nnc(-c3cccc(C#N)c3)nc2-c2ccc(OC)cc2)cc1 [JR113] : SPF was 67.74
